System: human bladder carcinoma cell line, T24
Experiment: T24 cell-based proliferation assay
Conditions: T-24, T24 cells treated 72 hours, DNA quantitated with bisbenzamide, Table 3, read-out: Cell Growth Inhbition, IC50
Method: Proliferation The novel compounds of the present invention were tested for their ability to inhibit growth of the human bladder carcinoma cell line, T24. Cells were treated with compounds for 72 hours, lysed by freeze/thaw to expose the DNA, and then the DNA was quantitated using the intercalating dye, bisbenzamide (Sigma). […] Fluorescence values from vehicle-treated cells were determined and used as 100%.
pIC50: −log10 of the molar value.
quantity: pIC50

compound: O=C(CCCCC[C@H](NC(=O)c1cccnc1)C(=O)Nc1cccc2cccnc12)NO [Compound 9]
pIC50: 6.40
--
compound: O=C(CCCCC[C@H](NC(=O)c1cccnc1)C(=O)NCc1ccccc1)NO [Compound 5]
pIC50: 5.04
--
compound: O=C(CCCCC[C@H](NC(=O)c1ccccc1)C(=O)Nc1ccc2ncccc2c1)NO [Compound 6b]
pIC50: 6.70

P = O=C(CCCCC[C@H](NC(=O)c1ccccc1)C(=O)Nc1cccc2cccnc12)NO [Compound 11]
Q = O=C(CCCCC[C@H](NC(=O)c1ccc2ccccc2n1)C(=O)Nc1ccc2ncccc2c1)NO [Compound 7]
R = O=C(CCCCC[C@H](NC(=O)c1ccccc1)C(=O)NCc1ccccc1)NO [Compound 4]
Sort entries by pIC50 from minimum to maximum value. Dear reader, please state the labels in the requested order. R, Q, P
(R: 5.49, Q: 6.22, P: 6.52)

====

Tested on: human bladder carcinoma cell line, T24
Experiment: T24 cell-based proliferation assay
Settings: T-24, T24 cells treated 72 hours, DNA quantitated with bisbenzamide, Table 3, read-out: Cell Growth Inhbition, IC50
quantity: IC50 (nM)

query-smiles: O=C(CCCCC[C@H](NC(=O)c1ccc2ccccc2n1)C(=O)NCc1ccccc1)NO
observed-value: 1700

1 = O=C(CCCCC[C@H](NC(=O)OCc1ccccc1)C(=O)Nc1ccc2ncccc2c1)NO
2 = O=C(CCCCC[C@H](NC(=O)c1cccnc1)C(=O)Nc1ccc2ncccc2c1)NO
Could you please tell me which of these two has the higher IC50: 1 or 2 ? Kindly give the label for the entry you pick. 2

====

Target: histone deacetylase, subtype 1 (HDAC1) (Homo sapiens, UniProt Q13547)
Construct: Flag; made in house
Sequence (Q13547 whole entry): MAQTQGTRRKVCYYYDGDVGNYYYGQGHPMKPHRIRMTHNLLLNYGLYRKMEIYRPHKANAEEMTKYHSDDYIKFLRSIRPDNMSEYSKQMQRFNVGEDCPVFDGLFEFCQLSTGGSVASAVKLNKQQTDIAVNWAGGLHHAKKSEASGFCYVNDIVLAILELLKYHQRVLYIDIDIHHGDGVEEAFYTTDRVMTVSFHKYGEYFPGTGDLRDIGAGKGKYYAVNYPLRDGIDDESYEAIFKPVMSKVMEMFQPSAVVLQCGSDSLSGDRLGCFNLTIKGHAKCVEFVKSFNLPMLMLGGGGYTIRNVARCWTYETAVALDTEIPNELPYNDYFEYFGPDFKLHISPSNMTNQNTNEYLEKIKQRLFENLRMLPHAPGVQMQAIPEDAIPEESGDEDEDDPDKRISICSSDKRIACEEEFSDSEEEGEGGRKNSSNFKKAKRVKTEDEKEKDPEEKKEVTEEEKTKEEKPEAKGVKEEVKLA
Assay: HDAC1-Flag in vitro deacetylation assay
Assay type: biochemical
Conditions: epitope-tagged human HDAC1 complex; substrate concentration at Km; Table 2; read-out: HDAC Inhibition IC50
pIC50: −log10 of the molar value.
quantity: pIC50

molecule: O=C(CCCCC[C@H](NC(=O)OCc1ccccc1)C(=O)NCc1ccccc1)NO [Compound 2]
observed-value: 7.43

I = O=C(CCCCC[C@H](NC(=O)OCc1ccccc1)C(=O)Nc1ccc2ncccc2c1)NO [Compound 6a]
II = O=C(CCCCC[C@H](NC(=O)c1ccccc1)C(=O)Nc1ccc2ncccc2c1)NO [Compound 6b]
Could you please tell me which of these two has the higher pIC50: I or II ? Kindly give the label for the entry you pick. II

====

Target: histone deacetylase, subtype 1 (HDAC1) (Homo sapiens)
Construct: Flag; made in house
Assay: HDAC1-Flag in vitro deacetylation assay
Format: biochemical
Details: epitope-tagged human HDAC1 complex; substrate concentration at Km; Table 2; read-out: HDAC Inhibition IC50
quantity: IC50 (nM)

query-smiles: O=C(CCCCC[C@H](NC(=O)c1cccnc1)C(=O)NCc1ccccc1)NO
observed-value: 150
--
query-smiles: O=C(CCCCC[C@H](NC(=O)c1cccnc1)C(=O)Nc1cccc2cccnc12)NO
observed-value: 4.1
--
query-smiles: O=C(CCCCC[C@H](NC(=O)c1ccc2ccccc2n1)C(=O)Nc1cccc2cccnc12)NO
observed-value: 41.8
--
query-smiles: O=C(CCCCC[C@H](NC(=O)c1cccnc1)C(=O)Nc1ccc2ncccc2c1)NO
observed-value: 1.6
--
query-smiles: O=C(CCCCC[C@H](NC(=O)c1ccc2ccccc2n1)C(=O)NCc1ccccc1)NO
observed-value: 52.7
--
query-smiles: O=C(CCCCC[C@H](NC(=O)c1ccc2ccccc2n1)C(=O)Nc1ccc2ncccc2c1)NO
observed-value: 54.5

I = O=C(CCCCC[C@H](NC(=O)c1ccccc1)C(=O)Nc1cccc2cccnc12)NO
II = O=C(CCCCC[C@H](NC(=O)c1ccccc1)C(=O)NCc1ccccc1)NO
Could you please tell me which of these two has the higher IC50: I or II ? Kindly give the label for the entry you pick. II
(II: 73 nM, I: 12.7 nM)

====

Target: histone deacetylase, subtype 1 (HDAC1) (Homo sapiens)
Construct: Flag; made in house
Test: HDAC1-Flag in vitro deacetylation assay
Format: biochemical
Details: Table 4, additional compounds; n = 2; read-out: HDAC inhibition IC50
quantity: IC50 (nM)

compound: O=C(CCCCCC(C(=O)NCCc1ccccc1)C(=O)NCCc1ccccc1)NO [Compound 13]
observed-value: 186

compound: O=C(CCCCCC(C(=O)NCc1ccccc1)C(=O)NCc1ccccc1)NO [Compound 12]
observed-value: 156
